Endpoint summary: IC50, system: PIK3CG (human) (UniProt P48736), multiple sources combined.

Exercise: Quick check: IC50 on PIK3CG (human) (UniProt P48736), item CC(C)N1CCC(Oc2nc([C@H](C)Nc3ncnc4scnc34)cc3cccc(Cl)c23)CC1 ?
Solution: < 10 µM

Exercise: Quick check: IC50 on PIK3CG (human) (UniProt P48736), item CCN1CCC(NC(=O)c2nc([C@H](C)Nc3ncnc4scnc34)cc3cccc(Cl)c23)CC1 ?
Solution: < 10 µM

Others:
Exercise: Quick check: IC50 on PIK3CG (human) (UniProt P48736), item Cc1cccc2cc(Cn3nc(C#C[C@@H](C)O)c4c(N)ncnc43)n(C(C)C)c(=O)c12 ?
Solution: < 10 µM

Exercise: Quick check: IC50 on PIK3CG (human) (UniProt P48736), item CC(C)Oc1ccc(-c2cnc(N)c(C(=O)N[C@@H](C)c3cc4cccc(Cl)c4c(=O)n3-c3ccccc3)n2)cc1Cl ?
Solution: 1 to 10 µM

Exercise: Quick check: IC50 on PIK3CG (human) (UniProt P48736), item Cc1csc2nc(Cn3nc(C#C[C@@H](C)O)c4c(N)ncnc43)n(-c3ncccc3C(F)(F)F)c(=O)c12 ?
Solution: < 10 µM

* * *

pIC50: −log10 of the molar value.
Endpoint summary: pIC50, system: UniProt P48736, multiple sources combined.

Exercise: Which pIC50 is listed for Cc1nc(NC(=O)CCCN[C@@H](CC(C)C)C(=O)O)sc1-c1ccc(Cl)c(S(C)(=O)=O)c1 ?
Solution: < 6.00

Exercise: Which pIC50 is listed for C[C@H](NC(=O)c1c(N)nn2cccnc12)c1cc2cccc(C#CCNS(C)(=O)=O)c2c(=O)n1-c1ccccc1 ?
Solution: 6.00 to 7.00

Exercise: Which pIC50 is listed for C/C=C/C(=O)CCCC(=O)N1CCN(Cc2cc3nc(-c4cccc5[nH]ncc45)nc(N4CCOCC4)c3s2)CC1 ?
Solution: < 6.00

Exercise: Which pIC50 is listed for COc1ncc(-c2ccc3nccc(-c4ccc(CN(C)CCO)cc4)c3c2)cc1NS(=O)(=O)c1ccc(F)cc1F ?
Solution: 8.96

Exercise: Which pIC50 is listed for CN(C(=O)C1CCN(c2ccnc3c2c(C=C2Oc4ccc(NC(=O)Nc5cccnc5)cc4C2=O)cn3C)CC1)C1CCS(=O)(=O)C1 (centres unmarked) ?
Solution: < 5.00

Exercise: Which pIC50 is listed for CN(C)CCCNC(=O)Nc1ccc(-c2nc(N3CCOCC3)c3ccn(CCN(C)C)c3n2)cc1 ?
Solution: 5.36

Exercise: Which pIC50 is listed for Nc1nc2cc(-c3nn(C[C@@H]4SSC[C@H]4OC(=O)c4ccccc4)c4ncnc(N)c34)ccc2o1 (relative stereo) ?
Solution: 5.00 to 6.00

Others:
Exercise: Which pIC50 is listed for C[C@H](NC(=O)c1nc(-c2cccc(S(=O)(=O)N3CCOCC3)c2)cnc1N)c1cc2cccc(Cl)c2c(=O)n1-c1ccccc1 ?
Solution: < 5.00

* * *

pIC50: −log10 of the molar value.
Endpoint summary: pIC50, system: PIK3CG (human), multiple sources combined.

# count of solved cases: 2
Exercise: Quick check: pIC50 on PIK3CG (human), item Cc1cccc2cc(Cn3nc(-c4ccc5sc(N)nc5c4)c4c(N)ncnc43)n(-c3ccccc3)c(=O)c12 ?
Solution: > 7.00

Exercise: Quick check: pIC50 on PIK3CG (human), item C[C@H](Nc1ncnc2[nH]cnc12)c1cc2cccc(Cl)c2c(C(=O)Nc2ccccc2)n1 ?
Solution: > 5.00

Others:
Exercise: Quick check: pIC50 on PIK3CG (human), item CC(C)(C#N)c1ccc(-c2n[nH]c3cnc4ccc(-c5cnc6ccccc6c5)cc4c23)cc1 ?
Solution: 7.60 to 8.00

* * *

pIC50: −log10 of the molar value.
Endpoint summary: pIC50, system: PIK3CG (human) (UniProt P48736), multiple sources combined.

Exercise: Which pIC50 is listed for C[C@H](NC(=O)c1c(N)nn2cccnc12)c1cc2cccc(C#CCNC(=O)C3CCC(=O)C3)c2c(=O)n1-c1ccccc1 (stereo partly drawn) ?
Solution: > 7.00

Exercise: Which pIC50 is listed for CN1CCC(NC(=O)Nc2ccc(Nc3nc(Nc4ccc(C(N)=O)cc4)c4cnn(C)c4n3)cc2)CC1 ?
Solution: 5.50

Exercise: Which pIC50 is listed for Cn1cc(/C=C2\Oc3ccc(NC(=O)NC4CNC4)cc3C2=O)c2c(N3CC4CCC(C3)O4)ccnc21 ?
Solution: 6.27

Others:
Exercise: Which pIC50 is listed for Cc1cccc2cc([C@H](C)Nc3ncnc4[nH]cc(F)c34)n(C3CC3)c(=O)c12 ?
Solution: > 7.00

Exercise: Which pIC50 is listed for Cn1cc(-c2nc(Oc3ccc4[nH]ccc4c3)c3cnn(C)c3n2)cn1 ?
Solution: 5.60

Exercise: Which pIC50 is listed for CC(=O)Nc1nc2ccc(-c3nn(Cc4cc5cccc(C)c5c(=O)n4-c4ccccc4C)c4ncnc(N)c34)cc2[nH]1 ?
Solution: > 7.00

* * *

Endpoint summary: IC50, system: PIK3CG (human) (UniProt P48736), multiple sources combined.

Exercise: Quick check: IC50 on PIK3CG (human) (UniProt P48736), item CC(=O)Nc1ccc(-c2ccnc3c2c(/C=C2\Oc4cc(O)cc(O)c4C2=O)cn3C)cc1 ?
Solution: 51 nM

Others:
Exercise: Quick check: IC50 on PIK3CG (human) (UniProt P48736), item Cc1ccccc1-n1c(Cn2nc(Br)c3c(N)ncnc32)nc2sc(C)c(C)c2c1=O ?
Solution: > 10000 nM

Exercise: Quick check: IC50 on PIK3CG (human) (UniProt P48736), item Cc1cccc2cc(Cn3nc(-c4cc(O)cc(F)c4)c4c(N)ncnc43)n(C(C)C)c(=O)c12 ?
Solution: < 1000 nM

Exercise: Quick check: IC50 on PIK3CG (human) (UniProt P48736), item COc1ccc(-c2nn(Cc3cc4cccc(C)c4c(=O)n3-c3ccccc3F)c3ncnc(N)c23)cc1OC ?
Solution: < 1000 nM

Exercise: Quick check: IC50 on PIK3CG (human) (UniProt P48736), item Cn1cc(/C=C2\Oc3cc(O)cc(O)c3C2=O)c2c(N3CCOCC3)ccnc21 ?
Solution: 131 nM

Exercise: Quick check: IC50 on PIK3CG (human) (UniProt P48736), item Cn1cc(/C=C2\Oc3cc(O)cc(O)c3C2=O)c2c(/C=C/c3ccccc3)ccnc21 ?
Solution: 92 nM

Exercise: Quick check: IC50 on PIK3CG (human) (UniProt P48736), item COc1cccc(-c2nc(Nc3ccc(C(N)=O)cc3)c3cnn(C4CCN(Cc5ccccc5)CC4)c3n2)c1 ?
Solution: 2750 nM

* * *

Endpoint summary: IC50, system: PIK3CG (human), multiple sources combined.

# count of solved cases: 3
Exercise: Quick check: IC50 on PIK3CG (human), item Cn1cc(/C=C2\Oc3ccc(NC(=O)Nc4nc5ccccc5n4C)cc3C2=O)c2c(N3CC4CCC(C3)O4)ccnc21 ?
Solution: > 10 µM

Exercise: Quick check: IC50 on PIK3CG (human), item CNC(=O)Nc1ccc(-c2nc(N3CCOC[C@@H]3C)nc3c2cnn3C2CCOCC2)cc1 ?
Solution: > 0.1 µM

Exercise: Quick check: IC50 on PIK3CG (human), item C[C@H](Nc1c(C#N)cnc2cccnc12)c1cc2cccc(C(F)(F)F)c2c(=O)n1-c1ccccc1 ?
Solution: 1 to 10 µM

Query compound follows.
Exercise: Quick check: IC50 on PIK3CG (human), item COCCCNC(=O)C1CCN(c2ccnc3c2c(C=C2Oc4ccc(NC(=O)Nc5cccnc5)cc4C2=O)cn3C)CC1 ?
Solution: > 10 µM

* * *

Endpoint summary: pIC50, system: UniProtKB P48736, multiple sources combined.
pIC50: −log10 of the molar value.

# count of solved cases: 4
Exercise: Which pIC50 is listed for CC(=O)Nc1cccc(-c2ccc3ncnc(Nc4ccc(CC#N)cc4)c3c2)c1 ?
Solution: 5.16

Exercise: Which pIC50 is listed for CNC(=O)NCCOc1nc([C@H](C)Nc2ncnc3[nH]cnc23)cc2cccc(Cl)c12 ?
Solution: > 5.00

Exercise: Which pIC50 is listed for C=CC(=O)N1CCN(C(=O)c2ccc(-c3cc4nc(-c5cccc6[nH]ncc56)nc(N5CCOCC5)c4s3)cc2)CC1 ?
Solution: < 6.00

Exercise: Which pIC50 is listed for Nc1nn2cccnc2c1C(=O)NCc1cc2cccc(Cl)c2c(=O)n1-c1ccccc1 ?
Solution: < 5.00

Others:
Exercise: Which pIC50 is listed for CC(C)n1ccc2c(N3CCOCC3)nc(-c3ccc(NC(=O)Nc4ccc(N5CCN(C)CC5)cc4)cc3)nc21 ?
Solution: 6.87

Exercise: Which pIC50 is listed for C[C@H](Nc1ncnc2[nH]cnc12)c1cc2cccc(Cl)c2c(C(=O)N2CCN[C@@H](C)C2)n1 ?
Solution: > 5.00

Exercise: Which pIC50 is listed for CN(Cc1cc2nc(-c3cccc4[nH]ncc34)nc(N3CCOCC3)c2s1)c1ncc(C(=O)NO)cn1 ?
Solution: > 7.00
